assaySystem: LXRβ (Homo sapiens, UniProt P55055)
Construct: coding for the hinge region, and LBD of the canonical isoform of the respective nuclear receptor
Sequence (P55055 222-460 limits assumed): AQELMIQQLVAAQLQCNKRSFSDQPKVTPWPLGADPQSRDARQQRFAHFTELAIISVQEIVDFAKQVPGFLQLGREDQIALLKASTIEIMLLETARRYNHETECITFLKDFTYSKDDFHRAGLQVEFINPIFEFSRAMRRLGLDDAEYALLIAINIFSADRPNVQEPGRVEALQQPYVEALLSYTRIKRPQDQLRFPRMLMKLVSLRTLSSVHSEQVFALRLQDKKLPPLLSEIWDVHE
protocolDescription: Gal4-LXRβ hybrid reporter gene assay
measureName: IC50 (nM)

compound | measureName | measuredNumber
CS(=O)(=O)c1cccc(-c2ccc(CN(Cc3cccc(C(F)(F)F)c3Cl)CC(c3ccccc3)c3ccccc3)cc2)c1 [Compound 3] | IC50 | 2950

----------
assaySystem: LXRα (Homo sapiens, UniProt Q13133)
Construct: coding for the hinge region, and LBD of the canonical isoform of the respective nuclear receptor
Sequence (Q13133 209-447 limits assumed): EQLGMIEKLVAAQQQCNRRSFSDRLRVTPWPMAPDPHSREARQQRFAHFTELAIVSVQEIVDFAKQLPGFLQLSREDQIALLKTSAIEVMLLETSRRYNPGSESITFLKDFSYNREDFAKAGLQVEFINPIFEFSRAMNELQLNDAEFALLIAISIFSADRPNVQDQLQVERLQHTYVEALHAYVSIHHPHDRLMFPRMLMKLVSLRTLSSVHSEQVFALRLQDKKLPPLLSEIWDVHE
protocolDescription: Gal4-LXRα hybrid reporter gene assay
pIC50: −log10 of the molar value.
measureName: pIC50

testSmiles | measureName | measuredNumber
CS(=O)(=O)c1cccc(-c2ccc(CN(Cc3cccc(C(F)(F)F)c3Cl)CC(c3ccccc3)c3ccccc3)cc2)c1 | pIC50 | 5.12
